The reported measurements were obtained from ChEMBL document CHEMBL5724914.

- experimental-protocol: The drug is tested on Z-018 corresponding to pig gut metagenome with ENA study accession number: PRJEB37062 and ENA sample accession number: ERS12561817 for biotransformation under anaerobic condition. The drug concentrations were measured over 9 timepoints collected between 0 and 24 hours of incubation by liquid-chromatography-coupled mass spectrometry (LC–MS); also: call rule not given here
- run-parameters: 2 µM
value-type: Bacterial Biotransformation

[[record]]
molecule = "COC(=O)[C@H](c1ccccc1Cl)N1CCc2sccc2C1.O=S(=O)(O)O [CLOPIDOGREL BISULFATE]"
result_value = "Compound metabolized"

[[record]]
molecule = "Nc1nc(N)nc(-c2cc(Cl)ccc2Cl)n1.O=C(O)/C=C\\C(=O)O [IRSOGLADINE MALEATE]"
result_value = "Compound NOT metabolized"

[[record]]
molecule = "CCc1oc2ccccc2c1C(=O)c1cc(Br)c(O)c(Br)c1"
result_value = "Compound metabolized"

[[record]]
molecule = "CCOc1ccccc1OCCN[C@H](C)Cc1ccc(OC)c(S(N)(=O)=O)c1.Cl [TAMSULOSIN HYDROCHLORIDE]"
result_value = "Compound NOT metabolized"

[[record]]
molecule = "CCN(CC)CCOC(=O)C1(C2CCCCC2)CCCCC1"
result_value = "Compound NOT metabolized"


Exercise: // lookup Bacterial Biotransformation for CC(C)(C)NC(=O)[C@H]1CC[C@H]2[C@@H]3CC[C@H]4NC(=O)C=C[C@]4(C)[C@H]3CC[C@]12C [FINASTERIDE]
Key: Compound metabolized

Exercise: Again, but for CC1=C(CC(=O)O)c2cc(F)ccc2/C1=C\c1ccc([S+](C)[O-])cc1 (stereo unspecified)
Key: Compound metabolized

Exercise: # repeat for COc1cc2nc(N3CCN(C(=O)C4COc5ccccc5O4)CC3)nc(N)c2cc1OC.CS(=O)(=O)O (stereo unspecified) [DOXAZOSIN MESYLATE]
Key: Compound metabolized

Exercise: Do the same for CC(NC(C)(C)C)C(=O)c1cccc(Cl)c1 (stereo unspecified) please
Key: Compound metabolized

Exercise: Field entry: CCCN1C[C@H](CSC)C[C@@H]2c3cccc4[nH]cc(c34)C[C@H]21.CS(=O)(=O)O [PERGOLIDE MESYLATE]
Key: Compound NOT metabolized

Exercise: Also check COc1ccc(C(CN(C)C)C2(O)CCCCC2)cc1 (stereo unspecified)
Key: Compound NOT metabolized

----------
- run-parameters: human gut metagenome, 24 h, 2 µM
value-type: Bacterial Biotransformation

# count of solved cases: 8
[[record]]
molecule = "Cc1cc2c(s1)Nc1ccccc1N=C2N1CCN(C)CC1"
value_type = "Bacterial Biotransformation"
result_value = "Compound NOT metabolized"

[[record]]
molecule = "COc1ccccc1OCCNCC(O)COc1cccc2[nH]c3ccccc3c12 (stereo unspecified)"
value_type = "Bacterial Biotransformation"
result_value = "Compound NOT metabolized"

[[record]]
molecule = "O=C1N=C([O-])NC1(c1ccccc1)c1ccccc1.[Na+] [PHENYTOIN SODIUM]"
value_type = "Bacterial Biotransformation"
result_value = "Compound metabolized"

[[record]]
molecule = "CC(C)(C)NC[C@H](O)COc1nsnc1N1CCOCC1.O=C(O)/C=C\\C(=O)O [TIMOLOL MALEATE]"
value_type = "Bacterial Biotransformation"
result_value = "Compound NOT metabolized"

[[record]]
molecule = "CCOc1ccc2nc(S(N)(=O)=O)sc2c1 [ETHOXZOLAMIDE]"
value_type = "Bacterial Biotransformation"
result_value = "Compound NOT metabolized"

[[record]]
molecule = "CN(C)C(=O)Oc1cc(OC(=O)N(C)C)cc(C(O)CNC(C)(C)C)c1 (stereo unspecified)"
value_type = "Bacterial Biotransformation"
result_value = "Compound NOT metabolized"

[[record]]
molecule = "CCOc1ccccc1OCCN[C@H](C)Cc1ccc(OC)c(S(N)(=O)=O)c1.Cl [TAMSULOSIN HYDROCHLORIDE]"
value_type = "Bacterial Biotransformation"
result_value = "Compound NOT metabolized"

[[record]]
molecule = "CCOC(=O)C1=C(C)NC(C)=C(C(=O)OC)C1c1cccc([N+](=O)[O-])c1 (stereo unspecified)"
value_type = "Bacterial Biotransformation"
result_value = "Compound metabolized"


Exercise: Consider the molecule shown here: CC12CC3CC(C)(C1)CC(N)(C3)C2 [MEMANTINE] What is its recorded Bacterial Biotransformation?
Key: Compound NOT metabolized

Exercise: For CC(=O)CCCCn1c(=O)c2c(ncn2C)n(C)c1=O then?
Key: Compound NOT metabolized

Exercise: Entry CC[C@@]1(O)C(=O)OCc2c1cc1n(c2=O)Cc2cc3c(CN(C)C)c(O)ccc3nc2-1 please
Key: Compound NOT metabolized

Exercise: Moving on to Nc1nc(N)nc(-c2cc(Cl)ccc2Cl)n1.O=C(O)/C=C\C(=O)O [IRSOGLADINE MALEATE]
Key: Compound NOT metabolized

Exercise: How about CC(C)c1nc(N(C)S(C)(=O)=O)nc(-c2ccc(F)cc2)c1/C=C/[C@@H](O)C[C@@H](O)CC(=O)[O-].CC(C)c1nc(N(C)S(C)(=O)=O)nc(-c2ccc(F)cc2)c1/C=C/[C@@H](O)C[C@@H](O)CC(=O)[O-].[Ca+2] ?
Key: Compound NOT metabolized

Exercise: And for CCN(CC)CCOC(=O)C1(C2CCCCC2)CCCCC1 ?
Key: Compound NOT metabolized

Exercise: Now this one: O=C([O-])C[C@H](O)C[C@H](O)/C=C/c1c(C2CC2)nc2ccccc2c1-c1ccc(F)cc1.O=C([O-])C[C@H](O)C[C@H](O)/C=C/c1c(C2CC2)nc2ccccc2c1-c1ccc(F)cc1.[Ca+2]
Key: Compound metabolized

Exercise: COc1cc2nc(N3CCN(C(=O)C4CCCO4)CC3)nc(N)c2cc1OC (stereo unspecified) , same question.
Key: Compound NOT metabolized
